molecular target: UniProt P11229; assay: Agonist activity at human muscarinic M1 receptor at 30 uM relative to acetylcholine; type: functional
Sequence (P11229 whole entry): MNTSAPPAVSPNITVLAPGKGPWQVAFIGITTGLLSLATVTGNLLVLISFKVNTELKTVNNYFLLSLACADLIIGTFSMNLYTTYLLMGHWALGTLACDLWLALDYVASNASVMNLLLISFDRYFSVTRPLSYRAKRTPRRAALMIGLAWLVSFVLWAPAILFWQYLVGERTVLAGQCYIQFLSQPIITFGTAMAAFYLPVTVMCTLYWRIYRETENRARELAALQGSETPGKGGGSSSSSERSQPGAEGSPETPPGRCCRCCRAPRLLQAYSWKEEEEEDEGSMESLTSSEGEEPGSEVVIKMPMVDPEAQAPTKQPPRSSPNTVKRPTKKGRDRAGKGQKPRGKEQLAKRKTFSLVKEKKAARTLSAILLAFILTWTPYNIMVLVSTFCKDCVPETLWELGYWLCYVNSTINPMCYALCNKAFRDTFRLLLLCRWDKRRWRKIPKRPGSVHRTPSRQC
Quick rule for you: Activity at 50% or higher means Condition met, lower means Condition not met.

{"Molecule": "CCOC(=O)N1C[C@H]2CC[C@@H](C1)[C@H]2NCCNC(=O)c1cc(F)cc(F)c1", "Class name": "Condition met"}
{"Molecule": "CCOC(=O)N1C2CCC1CC(N1CC(NC(=O)c3ccccc3)C1)C2 (mixture of isomers)", "Class name": "Condition not met"}
{"Molecule": "CCOC(=O)N1C[C@H]2CC[C@@H](C1)[C@H]2NCCNC(=O)c1cccs1", "Class name": "Condition met"}
{"Molecule": "CCOC(=O)N1[C@@H]2CC[C@H]1C[C@H](NCCNC(=O)N1CCCCC1)C2", "Class name": "Condition met"}
{"Molecule": "CCOC(=O)N1[C@@H]2CC[C@H]1C[C@H](NCCNC(=O)C1CCCCC1)C2", "Class name": "Condition not met"}
{"Molecule": "CCOC(=O)N1[C@@H]2CC[C@H]1C[C@H](NCCNC(=O)c1cccc(Cl)c1)C2", "Class name": "Condition met"}
{"Molecule": "CCOC(=O)N1CCC(N2CCC[C@@H](NC(=O)c3ccccc3C)C2)CC1", "Class name": "Condition met"}
{"Molecule": "CCOC(=O)N1[C@@H]2CC[C@H]1C[C@H](NCCNC(=O)c1ccccc1Cl)C2", "Class name": "Condition not met"}
{"Molecule": "O=C(NCCN[C@@H]1C[C@H]2CC[C@@H](C1)N2C(=O)OCc1ccccc1)c1ccccc1", "Class name": "Condition not met"}
